Values were extracted from PubChem BioAssay.

Test: S. cerevisiae growth inhibition in restrictive medium, OD615, pilot screen, restrictive growth control, yeast lifespan reduction project (AID 706);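 further: modified DeaD lifespan yeast strain shifted to restrictive glucose medium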
Conditions: OD615, 48 h, at 10 µM
Activity calls are given as the source filed them.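 How the source made its calls: active means growth inhibition above a set limit, 3 SD over mean compound inhibition, in both replicates (cut at about 43% in these data); inconclusive means above the limit in only one replicate; inactive means at or below the limit in both replicates.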
Valid outcomes are listed here; reply with one: y (active), n (inactive)

Outcome logged for COCCOC(=O)C1=C(C)N=c2s/c(=C\c3cccs3)c(=O)n2C1c1cccs1 (stereo not drawn) in this assay: n

====

Test: viability of PTEN-null HCT116 cells – cell-based, HCT116 clonal line, CellTiter-Glo, pilot screen (AID 824);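 further: 0% = 20 µM Hyamine control and 100% = vehicle cell control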
Conditions: HCT116 PTEN-deleted viability, 60 h, at 10 µM, stronger effect = lower value
Results filed as inconclusive are left out.
Threshold 90%. viability below it: TRUE. viability at it or above: FALSE.

Take the compound O=C(c1cnn(-c2ccccc2)c1-n1cccc1)N1CCN(C2CCCCC2)CC1 and say whether its viability is less than 90%. FALSE

====

Assign inhibition to each entry below.
Test: RAM pathway blockade in budding yeast – dse1pr::URA3 reporter, 5-FOA selection, pilot screen (AID 869);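 further: 0% = DMSO wells with no growth and 100% = 10 µM 1-NA-PP1 with full growth; RAM network block rescues cells from 5-FOA so hits raise OD615 growth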
Conditions: S. cerevisiae dse1pr::URA3 5-FOA growth, OD615, 2 d; at 10 µM; stronger effect = higher value; strain carries analog-sensitive mutant Cbk1 kinase
Activity calls are given as the source filed them.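 Rule for the calls: active = inhibition over a set limit, the all-compound mean plus 3 SD, in both replicate runs; inconclusive = over that limit in just one replicate run; inactive = at or under that limit in both runs.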

// known answers, use as guide
[[record]]
compound = "COc1ccc(OCc2nc(C#N)c(N3CCN(c4ccc(OC)cc4)CC3)o2)cc1"
result_value = "1.06% (inactive)"

[[record]]
compound = "CCN(CC)C(=O)Oc1ccccc1NC(C)=O"
result_value = "0.84% (inactive)"

[[record]]
compound = "Cc1c(NC(=O)C2CCCCN2S(=O)(=O)c2ccc(Cl)cc2)c(=O)n(-c2ccccc2)n1C (configuration not stated)"
result_value = "0.76% (inactive)"

[[record]]
compound = "O=C(CC1(O)C(=O)Nc2ccccc21)c1ccc2c(c1)OCO2 (configuration not stated)"
result_value = "2.9% (inactive)"

[[record]]
compound = "CCCCn1c(NCc2ccccc2O)nc2ccccc21"
result_value = "0.34% (inactive)"


Please give inhibition for each item listed below.
1. Cc1cccc(C)c1OCC(O)Cn1ccnc1C (configuration not stated)
2. CCOC(=O)CCCOC(=O)c1ccc(S(=O)(=O)N(C)C)cc1

1. 1.08% (inactive)
2. 1.5% (inactive)

====

Assay: doxorubicin toxicity protection in MRP-1 cells – H69AR cells, CellTiter-Glo, duplicate, MRP-1 activator project, pilot screen (AID 807);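 further: compound pretreatment 18-22 h then 72 h combined with doxorubicin; 0% = doxorubicin alone and 100% = vehicle without doxorubicin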
Conditions: H69AR viability with doxorubicin, CellTiter-Glo luminescence; at 10 µM; stronger effect = higher value
readout: viability increase (%)
One number for each entry, in %.

// batch mode: one viability increase value per listed entry
1. O=C(CSc1nc2c(c(=O)n1-c1ccc(Cl)cc1)SCC2)Nc1nccs1
2. COc1cc(C(=O)NCCc2cn3ccc(C)cc3n2)cc(OC)c1OC
3. CCCCSCc1[nH]c(=O)[nH]c1C(=O)CCCCC(=O)OCC

1: -2.93; 2: -4.28; 3: -3.65

I would be grateful if you could provide viability increase for each of the following entries.
1. CC1Cc2nc(SCC(=O)Nc3ccc4c(c3)OCO4)n(CCc3ccccc3)c(=O)c2S1 (stereo unspecified)
2. COC(=O)c1ccc(N=c2sc(C(=O)OC)cc(=O)n2C)cc1
3. CCOC(=O)N1CCC(c2cc(=O)n3[nH]c(C)c(-c4ccc(F)cc4)c3n2)CC1
4. O=C(NC1CCCCCC1)C1CCCN1S(=O)(=O)c1cccc2cccnc12 (stereo unspecified)
5. COC(=O)/C=C/S(=O)(=O)c1ccc(NC(C)=O)cc1
6. O=C(CCc1nc2ccccc2[nH]1)NC1CCCCC1

-2.89
-5.93
0.52
-0.87
-8.44
-0.01

# per-item lookup of viability increase; items listed below
1. COc1ccc(S(=O)(=O)N2CCC(C(=O)N3CCOCC3)CC2)cc1OC
2. CC1Cc2nc(SCC(=O)N3CCCc4ccccc43)n(C)c(=O)c2S1 (stereo unspecified)

1. -0.87
2. -3.51

====

Test: viability of PTEN-null HCT116 cells – cell-based, HCT116 clonal line, CellTiter-Glo, pilot screen (AID 824);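 further: 0% = 20 µM Hyamine control and 100% = vehicle cell control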
Details: HCT116 PTEN-deleted viability, 60 h, at 10 µM, stronger effect = lower value
Inconclusive results are not listed.
Consider the following molecules; for each one, report its viability.
Answers are plain numbers, in %.

I need viability for every entry listed below, if you could help.
1. COc1ccccc1N(CC(=O)NCc1ccccn1)S(C)(=O)=O
2. CCSC1=C(C#N)C(c2ccccc2OC)CC(=O)N1 (stereo not given)
3. Cc1ccc(-c2nc(CS(=O)CC(=O)NCc3ccccn3)c(C)o2)cc1 (stereo not given)
4. Cc1cccc(C2CC(c3ccccc3)Nc3nc(N)nn32)c1 (stereo not given)
5. COc1ccc(CNC(=O)Cn2cc3c(n2)CCCCC3)cc1
6. COCCNC(=O)CN1C(=O)CSc2ncccc21

1: 91.5; 2: 91.6; 3: 90.7; 4: 88.2; 5: 91.9; 6: 92

====

Test: S. cerevisiae growth inhibition in restrictive medium, OD615, pilot screen, restrictive growth control, yeast lifespan reduction project (AID 706);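 further: modified DeaD lifespan yeast strain shifted to restrictive glucose medium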
Conditions: OD615, 48 h, at 10 µM, stronger effect = higher value
Activity calls are given as the source filed them.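 Rule for the calls: active = growth inhibition above a set limit, 3 SD over mean compound inhibition, in both replicates (cut at about 43% in these data); inconclusive = above the limit in only one replicate; inactive = at or below the limit in both replicates.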
readout: growth inhibition

[[record]]
molecule = "Cc1cc(Nc2ccc(C)c(Br)c2)n2nc(C)nc2n1"
result_value = "10.4% (inactive)"

[[record]]
molecule = "N#CCCN(Cc1cccnc1)C(=O)Nc1ccc(Cl)c(Cl)c1"
result_value = "-14.9% (inactive)"

[[record]]
molecule = "O=C(NCCOC(=O)C1COc2ccccc2O1)C1COc2ccccc2O1 (stereo not given)"
result_value = "-1.52% (inactive)"


Could you tell me growth inhibition for each of these molecules? They are listed below.
1. Cc1ccc2oc(=O)c3cnn(CC(=O)NCCN4CCOCC4)c3c2c1
2. COC(=O)c1ccc(NC(=O)C2C3CCC(C3)C2C(=O)O)cc1 (stereo not given)
3. CC1CCN(c2c(NCc3ccc(C(=O)N4c5ccccc5CC4C)cc3)c(=O)c2=O)CC1 (stereo not given)
4. CCOc1cccc(C(=O)N2CCCCC2c2cccnc2)c1 (stereo not given)
5. Cc1oc(-c2cccc(Cl)c2)nc1CN1CCC(C(=O)N2CCN(c3ccccc3F)CC2)CC1
6. Cn1c(C(=O)N2CCN(c3ccc(Cl)cc3)CC2)cc2c(=O)n(C)c3ccccc3c21
7. COc1ccc(CNC(=O)c2cnc3n(c2=O)CCS3)cc1
8. CCOc1cc(-c2nc(-c3ccc(OC)cc3)no2)cc(OCC)c1OCC

1. -12% (inactive)
2. 1.67% (inactive)
3. -17.2% (inactive)
4. -2.66% (inactive)
5. 1.06% (inactive)
6. 2.92% (inactive)
7. 4.27% (inactive)
8. -2.33% (inactive)

====

Test: reduced viability of SK-BR-3 breast cancer cells – cell-based, 24 h, human, pilot screen (AID 572);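 further: compound exposure lasted between 18 and 24 h rather than exactly 24 h; 100% = carrier-treated control wells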
Details: SK-BR-3 viability, CellTiter-Glo luminescence, at 10 µM, stronger effect = lower value
readout: viability (%)
Give bare numbers, in %.

// below: answered compounds
[[record]]
compound = "CCOc1ccc(CCN2C(=O)C3C4C=CC(C4)C3C2=O)cc1OCC (stereo not drawn)"
unit = "%"
result_value = 96

[[record]]
compound = "COc1ccccc1N1CCN(C(=O)N2CCOCC2)CC1"
unit = "%"
result_value = 107

[[record]]
compound = "COc1cc(/C=N/n2cnnc2)ccc1OCC(=O)N1CCOCC1"
unit = "%"
result_value = 84


Required: viability, one value per compound below.
1. CCC(=O)c1cc(F)c(N2CCN(C(=O)c3ccco3)CC2)cc1C
2. CCC(C)(NC(=O)c1ccc(=O)[nH]c1)C(=O)NC1CCCC1 (stereo not drawn)
3. CCc1nn(CC(=O)NCCCN2CCc3ccccc3C2)c(=O)c2cc3sccc3n12

1. 82
2. 102
3. 86

I would be grateful if you could provide viability for each of the following entries.
1. Cc1c(NC(=O)C2CCCCN2S(=O)(=O)c2ccc(Cl)cc2)c(=O)n(-c2ccccc2)n1C (stereo not drawn)
2. O=C1c2ccccc2C(Nc2ccc(-c3nc4ccccc4[nH]3)cc2)N1Cc1ccco1 (stereo not drawn)

[112, 90.5]

====

Test: viability of PTEN-null HCT116 cells – cell-based, HCT116 clonal line, CellTiter-Glo, pilot screen (AID 824);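 further: 0% = 20 µM Hyamine control and 100% = vehicle cell control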
Details: HCT116 PTEN-deleted viability, 60 h, at 10 µM, stronger effect = lower value
Records with an inconclusive call do not appear.
readout: viability (%)
Answers are plain numbers, in %.

[[record]]
molecule = "COc1ccc(-c2[nH]c(-c3ccc(F)cc3)nc2SCC(=O)NCc2ccco2)cc1OC"
readout = "viability"
result_value = 92.9

[[record]]
molecule = "Clc1cccc(-c2nnc(-c3ccccc3)o2)c1"
readout = "viability"
result_value = 21.4

[[record]]
molecule = "O=C(CCCOc1ccc(Cl)cc1)N1CCCCC1"
readout = "viability"
result_value = 96.8

[[record]]
molecule = "CCCCCCNS(=O)(=O)c1nc2nc(C)cc(C)n2n1"
readout = "viability"
result_value = 104

[[record]]
molecule = "NC(=O)c1sc2nc(N3CCCCC3)c3c(c2c1N)CCCC3"
readout = "viability"
result_value = 94.6


For each entry beneath this line, provide reported viability.
1. COc1cc(C(=O)N2CCN(c3cc(Cl)ccc3Cl)CC2)cc(OC)c1OC
2. COCCN1C(=O)c2oc3ccccc3c(=O)c2C1c1ccc(O)c(OC)c1 (stereo not drawn)

21.5
93.2

Answer for every listed entry: what is its viability? The entries follow.
1. CN(C)c1ccc(CN2CCCCCC2)cc1
2. Cn1c(=O)c(=O)n(C)c2cc(S(=O)(=O)CCC(=O)N3CCOCC3)ccc21
3. CCOC(=O)N1CCN(C(=O)CN(C2CCCCC2)S(=O)(=O)c2ccc(F)cc2)CC1

[88.1, 102, 103]

State the recorded viability for every item in the following list.
1. Cc1ccc(C(=O)CC2(O)C(=O)N(C)c3ccc(Br)cc32)c(C)c1 (stereo not drawn)
2. O/N=C1/CCc2cccc3cccc1c23
3. COCCNC(=O)c1cc(-c2cccs2)on1
4. O=C(Nc1ccncc1)c1ccccc1F
5. CCCCOC(=O)Cn1c(=O)oc2ccc(C)cc21

1. 74.7
2. 103
3. 70.6
4. 98
5. 98.1
